Examples of compounds with documented transcription activation potential (luciferase) ± standard deviation follow.
Molecular target: Mouse PPARα LBD fusion protein (Mus musculus)
Experiment: Transcription activation potential, GAL4 luciferase reporter in C3A cells
Format: cell-based
Settings: 1 μM, Table 20a
Description: Cells were seeded in 24 well plates the day prior to transfection at 5×10^4−2×10^5 cells/well, depending upon cell type. Cells were transfected using Lipofectamine 2000 reagent from Invitrogen. […] Approximately 10 μL of lysate was added to 100 μL of firefly luciferase substrate, mixed by pipetting, and analyzed on a luminometer for 10 s using the integration function (relative luciferase units/RLU) or on a Microbeta Trilux (luciferase counts per second/LCPS). […]

Please review the following examples before continuing.
{"COMPOUND": "Cc1cccc(C)c1COc1cccc(C(=O)O)c1", "SUBJECT_OF_TEST": "Mouse PPARα LBD fusion protein (Mus musculus)", "OBSERVED_MEASUREMENT": "4.43 ± 2.25 LCPS"}
{"COMPOUND": "Cc1cccc(Nc2cc(Cl)nc(SCC(=O)O)n2)c1C [Wy, reference compound]", "SUBJECT_OF_TEST": "Mouse PPARα LBD fusion protein (Mus musculus)", "OBSERVED_MEASUREMENT": "406.73 ± 80.11 LCPS"}
{"COMPOUND": "Cc1cccc(C)c1COc1cccc(C(=O)CCC(=O)O)c1", "SUBJECT_OF_TEST": "Mouse PPARα LBD fusion protein (Mus musculus)", "OBSERVED_MEASUREMENT": "14.67 ± 1.08 LCPS"}
{"COMPOUND": "Cc1cccc(C)c1COc1cccc(CCCC(=O)O)c1", "SUBJECT_OF_TEST": "Mouse PPARα LBD fusion protein (Mus musculus)", "OBSERVED_MEASUREMENT": "9.47 ± 2.14 LCPS"}

Please examine the following record next.
Assign transcription activation potential (luciferase) ± standard deviation to the following record: Cc1cccc(C)c1COc1cccc(CC(=O)O)c1
13.17 ± 7.84 LCPS

* * *

Molecular target: Mouse PPARα LBD fusion protein (Mus musculus, UniProt P23204)
Assay: Transcription activation potential, GAL4 luciferase reporter in C3A cells
Assay type: cell-based
Settings: 200 μM, Table 20a
MEASURED_ENDPOINT: transcription activation potential (luciferase) ± standard deviation (LCPS)
Report only the number, with the unit LCPS understood.

Study these solved cases before continuing.
{"COMPOUND": "Cc1cccc(Nc2cc(Cl)nc(SCC(=O)O)n2)c1C [Wy, reference compound]", "UNITS_TEXT": "LCPS", "OBSERVED_MEASUREMENT": 115.2}
{"COMPOUND": "Cc1cccc(C)c1COc1cccc(C(=O)CCC(=O)O)c1 [Compound BI]", "UNITS_TEXT": "LCPS", "OBSERVED_MEASUREMENT": 18.6}
{"COMPOUND": "Cc1cccc(C)c1COc1cccc(CC(=O)O)c1 [Compound CF]", "UNITS_TEXT": "LCPS", "OBSERVED_MEASUREMENT": 106.77}

Return value of transcription activation potential (luciferase) ± standard deviation for input Cc1cccc(C)c1COc1cccc(CCCC(=O)O)c1 [CE] , no commentary.
8

Specify reported transcription activation potential (luciferase) ± standard deviation for the compound shown: Cc1cccc(C)c1COc1cccc(C(=O)O)c1 [Compound CG, 3-(2,6-Dimethylbenzyloxy)benzoic acid]
80.3

* * *

Target: Human PPARα LBD fusion protein (Homo sapiens, UniProt Q07869)
Construct: a.a; 167-468)
Sequence (Q07869 167-468): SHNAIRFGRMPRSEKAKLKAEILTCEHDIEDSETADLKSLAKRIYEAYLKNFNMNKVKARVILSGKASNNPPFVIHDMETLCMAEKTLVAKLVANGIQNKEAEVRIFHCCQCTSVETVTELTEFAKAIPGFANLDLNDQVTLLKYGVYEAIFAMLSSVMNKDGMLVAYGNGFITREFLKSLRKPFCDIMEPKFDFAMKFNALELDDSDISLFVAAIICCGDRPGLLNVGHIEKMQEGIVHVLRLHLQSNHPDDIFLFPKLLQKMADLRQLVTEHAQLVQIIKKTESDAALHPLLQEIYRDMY
Experiment: Transcription activation potential, GAL4 luciferase reporter in C3A cells
Type: cell-based
Details: 30 μM
# label = Condition met if transcription activation potential (luciferase) ± standard deviation >= 40 LCPS else Condition not met

Evaluate Cc1cccc(Nc2cc(Cl)nc(SCC(=O)O)n2)c1C [Wy, reference compound] : transcription activation potential (luciferase) ± standard deviation at minimum 40 LCPS?
Condition met

* * *

Test system: male ob/ob mouse model of Type II diabetes
Experiment: Antidiabetic effects in ob/ob mice (serum chemistry after 2 weeks daily oral dosing)
Type: in vivo
Settings: 60 mg/kg daily oral, 2 weeks
Rule: Glucose under 200 mg/dL gives NO, otherwise YES.

Below are worked cases with known answers.
{"MOLECULE": "COC(=O)CC(=O)c1cccc(OCc2c(C)cccc2C)c1", "CLASS": "YES"}
{"MOLECULE": "Cc1cccc(C)c1COc1cccc(C(C=O)CC(N)=O)c1 (stereo not drawn)", "CLASS": "YES"}
{"MOLECULE": "Cc1cccc(C)c1COc1ccccc1", "CLASS": "YES"}

// inclusive: Glucose at least 200 mg/dL? input: Cc1cccc(C)c1COc1cccc(C(=O)CCC(=O)O)c1
YES

Decide: Glucose of Cc1cccc(C)c1COc1cccc(C(=O)CCCC(=O)O)c1 >= 200 mg/dL?
YES

Identify whether the reported Glucose of the following molecule is 200 mg/dL or greater: Cc1cccc(C)c1COc1cccc(CC(=O)O)c1
NO

* * *

Molecular target: Mouse PPARα LBD fusion protein (Mus musculus, UniProt P23204)
Sequence (P23204 239-466): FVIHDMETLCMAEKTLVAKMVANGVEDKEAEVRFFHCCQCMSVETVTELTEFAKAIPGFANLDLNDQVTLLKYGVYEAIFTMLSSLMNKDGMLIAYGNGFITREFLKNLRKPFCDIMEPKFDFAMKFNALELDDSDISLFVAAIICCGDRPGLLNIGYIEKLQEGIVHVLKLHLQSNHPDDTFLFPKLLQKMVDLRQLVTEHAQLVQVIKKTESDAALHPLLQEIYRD
Experiment: Transcription activation potential, GAL4 luciferase reporter in C3A cells
Assay type: cell-based
Details: 3 μM, Table 20a
Listed next: entries and their corresponding transcription activation potential (luciferase) ± standard deviation.

Worked set:
{"MOLECULE": "Cc1cccc(C)c1COc1cccc(C(=O)CCC(=O)O)c1", "OBSERVED_MEASUREMENT": "15.2 ± 2.78 LCPS"}
{"MOLECULE": "Cc1cccc(C)c1COc1cccc(CCCC(=O)O)c1", "OBSERVED_MEASUREMENT": "9.57 ± 2.61 LCPS"}

Find transcription activation potential (luciferase) ± standard deviation for Cc1cccc(C)c1COc1cccc(CC(=O)O)c1 on Mouse PPARα LBD fusion protein (Mus musculus, UniProt P23204) and write it down.
5.63 ± 0.42 LCPS

Look up and report transcription activation potential (luciferase) ± standard deviation, with Mouse PPARα LBD fusion protein (Mus musculus, UniProt P23204) as system, for Cc1cccc(Nc2cc(Cl)nc(SCC(=O)O)n2)c1C [Wy, reference compound]
295.8 ± 40.31 LCPS

Send back Mouse PPARα LBD fusion protein (Mus musculus, UniProt P23204) transcription activation potential (luciferase) ± standard deviation of Cc1cccc(C)c1COc1cccc(C(=O)O)c1 only.
9.17 ± 3.72 LCPS

* * *

In this section we review reported transcription activation potential (luciferase) ± standard deviation values for a set of compounds.
Tested on: Human PPARγ LBD fusion protein
Experiment: Transcription activation potential, GAL4 luciferase reporter in C3A cells
Format: cell-based
Conditions: 200 μM test compound
Report the value in LCPS with no unit label.

Guide cases for transcription activation potential (luciferase) ± standard deviation, answers given:
{"STRUCTURE_STRING": "Cc1cccc(C)c1COc1cccc(C(=O)O)c1", "SUBJECT_OF_TEST": "Human PPARγ LBD fusion protein", "UNITS_TEXT": "LCPS", "OBSERVED_MEASUREMENT": 598.1}
{"STRUCTURE_STRING": "Cc1cccc(C)c1COc1cccc(CC(=O)O)c1", "SUBJECT_OF_TEST": "Human PPARγ LBD fusion protein", "UNITS_TEXT": "LCPS", "OBSERVED_MEASUREMENT": 280.1}
{"STRUCTURE_STRING": "Cc1cccc(C)c1COc1cccc(C(=O)CCC(=O)O)c1", "SUBJECT_OF_TEST": "Human PPARγ LBD fusion protein", "UNITS_TEXT": "LCPS", "OBSERVED_MEASUREMENT": 227.3}

# evaluate next
Report measured transcription activation potential (luciferase) ± standard deviation; entry is Cc1cccc(C)c1COc1cccc(CCCC(=O)O)c1
12.3
